Attribution: patent US20240317858A1

targetEntity: T1, Cynomolgus CD3 on HSC-F cells (cynomolgus, UniProt Q95LI5 22-198)
T1 construct: whole, on cells; Target is the endogenous CD3 complex on cells; also called Cyno CD3 HSC-F cells; Cyno CD3+ HSC-F cells
T1 sequence (Q95LI5 22-198): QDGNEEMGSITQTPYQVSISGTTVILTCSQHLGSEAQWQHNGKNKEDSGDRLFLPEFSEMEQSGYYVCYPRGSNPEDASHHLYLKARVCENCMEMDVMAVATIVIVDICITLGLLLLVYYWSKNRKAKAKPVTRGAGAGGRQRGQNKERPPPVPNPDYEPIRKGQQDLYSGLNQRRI
methodNotes: flow cytometry, 100 nM IgG1, pH 7.4
endpointLabel: NCB (Normalized Cell Binding)
Note: the reply should be a number with no unit written.

Input: # lookup: NCB (Normalized Cell Binding) of Antibody No. V017 (ADI-76360) IgG1 (antibody, V domains shown, IgG1, CHO-produced) VH: QVQLVQSGAEVKKPGASVKVSCKASGFNIKDYYMHWVRQAPGQRLEWMGWIDLENADTIYDAKFQGRVTITRDTSASTAYMELSSLRSEDTAVYYCGRDAYGRYFYDVWGQGTLVTVSS VL: DIVMTQSPDSLAVSLGERATINCKSSQSLLNARTGKNYLAWYQQKPGQPPKLLIYWASTRESGVPDRFSGSGSGTDFTLTISSLQAEDVAVYYCKQSYSLRTFGGGTKVEIK
Output: 376

Input: Repeat for the following binder: Antibody No. V018 (ADI-76361) IgG1 (antibody, V domains shown, IgG1, CHO-produced) VH: QVQLVQSGAEVKKPGASVKVSCKASGFDIKDYYMHWVRQAPGQRLEWMGWIDLEEGNTIYDAKFQGRVTITRDTSASTAYMELSSLRSEDTAVYYCARDAYGRYFYDVWGQGTLVTVSS VL: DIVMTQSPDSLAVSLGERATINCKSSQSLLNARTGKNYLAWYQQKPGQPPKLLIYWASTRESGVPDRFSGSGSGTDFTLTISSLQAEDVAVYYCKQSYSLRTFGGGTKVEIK
Output: 378

Input: Also, Antibody No. V013 (ADI-70330) IgG1 (antibody, V domains shown, IgG1, CHO-produced) VH: QVQLVQSGAEVKKPGASVKVSCKASGFNIDDYYMHWVRQAPGQRLEWIGWIDLENANTVDDAKFQGRVTITRDTSASTAYMELSSLRSEDTAVYYCARDAYGRYFYDVWGQGTLVTVSS VL: DIVMSQSPDSLAVSLGERATINCKSSQSLLNARTGKNYLAWYQQKPGQPPKLLIYWASTRSSGVPDRFSGSGSGTDFTLTISSLQAEDVAVYYCVQSYFRRTFGGGTKVEIK please.
Output: 374
